- TEST DESCRIPTION: Partition equilibrium with addition of calcium and strontium salts to the aqueous phase
- Assay type: physicochemical
- DETAILS: Calcium 2600 mg · L^−1; salinity 3.5%
What Migration was measured for each of the following?

Problem: Supply recorded Migration for O=C(O)CCCCc1ccccc1 here.
Result: 3.4 %, mol

Problem: Supply recorded Migration for O=C(O)c1ccccc1 here.
Result: 56.7 %, mol

Problem: Supply recorded Migration for O=C(O)CCCCC1CCCCC1 here.
Result: 4.8 %, mol

Problem: Supply recorded Migration for CCCCC(=O)O here.
Result: 96.7 %, mol

Problem: Supply recorded Migration for O=C(O)C(C1CCCCC1)C1CCCCC1 here.
Result: 31.8 %, mol
